# TARGET OR TEST SYSTEM: hERG channel (IKr) (Homo sapiens, UniProt Q12809)
# Construct: expressed in transfected cells; host or cells: CHO cells
# Sequence (Q12809 whole entry): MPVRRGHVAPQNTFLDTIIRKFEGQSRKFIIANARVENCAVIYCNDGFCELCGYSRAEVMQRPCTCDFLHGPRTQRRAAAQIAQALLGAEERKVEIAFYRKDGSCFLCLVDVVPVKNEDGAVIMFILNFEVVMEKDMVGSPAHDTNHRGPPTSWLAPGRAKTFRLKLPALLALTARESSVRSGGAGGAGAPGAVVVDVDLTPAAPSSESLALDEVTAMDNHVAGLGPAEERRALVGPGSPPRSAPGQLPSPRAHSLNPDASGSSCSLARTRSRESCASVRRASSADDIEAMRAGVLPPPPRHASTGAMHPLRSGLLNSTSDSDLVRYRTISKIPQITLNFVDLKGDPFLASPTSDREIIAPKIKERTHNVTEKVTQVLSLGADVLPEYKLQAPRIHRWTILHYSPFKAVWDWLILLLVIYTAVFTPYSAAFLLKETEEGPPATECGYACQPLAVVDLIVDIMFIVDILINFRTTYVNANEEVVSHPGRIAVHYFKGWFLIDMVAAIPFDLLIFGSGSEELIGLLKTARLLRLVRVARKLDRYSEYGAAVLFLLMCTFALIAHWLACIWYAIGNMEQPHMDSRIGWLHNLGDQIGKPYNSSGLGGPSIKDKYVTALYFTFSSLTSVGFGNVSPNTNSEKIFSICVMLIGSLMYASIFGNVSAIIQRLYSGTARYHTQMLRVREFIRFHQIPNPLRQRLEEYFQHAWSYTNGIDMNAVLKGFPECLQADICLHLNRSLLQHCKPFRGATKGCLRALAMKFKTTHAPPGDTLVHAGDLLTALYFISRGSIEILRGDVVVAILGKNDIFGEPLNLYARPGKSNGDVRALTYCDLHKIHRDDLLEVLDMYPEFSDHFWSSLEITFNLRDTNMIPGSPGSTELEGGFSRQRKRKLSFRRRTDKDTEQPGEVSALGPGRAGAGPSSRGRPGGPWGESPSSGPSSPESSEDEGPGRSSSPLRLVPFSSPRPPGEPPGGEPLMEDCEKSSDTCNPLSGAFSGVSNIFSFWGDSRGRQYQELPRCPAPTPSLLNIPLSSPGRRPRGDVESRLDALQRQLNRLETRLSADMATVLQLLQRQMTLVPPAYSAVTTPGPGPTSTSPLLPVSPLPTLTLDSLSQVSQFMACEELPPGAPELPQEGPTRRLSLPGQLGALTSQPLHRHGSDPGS
# METHOD NOTES: hERG test (whole cell patch clamp, IKr)
# Type: cell-based
# RUN CONDITIONS: CHO cells expressing hERG channel, pH 7.4, 10 μmol/L of test compound, read-out: % inhibition of tail peak current (IKr)
// inhibition at 10 μmol/L lookup, one value per entry
// return numeric value only (unit: %, not printed)

CCOc1ncc(-c2nn(-c3ccccc3)c(NC(=O)N[C@@H]3C[C@@H](CCOC)C[C@H]3c3ccc(F)c(F)c3)c2C)cn1 [Compound I-169] has a reported inhibition at 10 μmol/L of 21

Now, please, on to the next molecule.
CCOc1ncc(-c2nn(-c3ccccc3)c(NC(=O)N[C@@H]3C[C@@H](CCOC)N(C)[C@H]3c3ccc(F)c(F)c3)c2C)cn1 [Compound I-174] has a reported inhibition at 10 μmol/L of 33.6
